# credit: PubChem BioAssay (NCI)

test system: HT29 colon; assay: NCI tumour cell line growth inhibition, 48 h
Measured endpoint: TGI

Here is how some molecules turned out for TGI.
[
  {
    "Molecule": "O=C(CCCCCCCCC(=O)N1C(=O)CC(=O)N(c2ccccc2)C1=S)N1C(=O)CC(=O)N(c2ccccc2)C1=S",
    "Measured target": "HT29 colon",
    "TGI": "> 100 µM"
  },
  {
    "Molecule": "CN(COC(=O)c1ccccc1)c1nc(N(C)COC(=O)c2ccccc2)nc(N(C)COC(=O)c2ccccc2)n1",
    "Measured target": "HT29 colon",
    "TGI": "> 100 µM"
  },
  {
    "Molecule": "CSc1c(C#N)c(N)nc2c(N=Nc3ccc(Br)cc3)c(N)nn12",
    "Measured target": "HT29 colon",
    "TGI": "29 µM"
  },
  {
    "Molecule": "CCCCCCNC(=O)CCC(NC(=O)c1ccc(N(C)Cc2cnc3nc(N)nc(N)c3n2)cc1)C(=O)NCCCCCC (stereo not drawn)",
    "Measured target": "HT29 colon",
    "TGI": "> 100 µM"
  },
  {
    "Molecule": "C=C1C(=O)O[C@H]2[C@H]1CC/C(COC(=O)CCSCCC(=O)OC/C1=C/CC[C@@]3(C)O[C@H]3[C@H]3OC(=O)C(=C)[C@@H]3CC1)=C\\CC[C@@]1(C)O[C@@H]21",
    "Measured target": "HT29 colon",
    "TGI": "1.73 µM"
  }
]

Tell me measured TGI for Cn1nc(-c2ccc(Cl)cc2)nc2c(=O)n(C)c(=O)nc1-2 please. 11.3 µM

Tell me measured TGI for Cc1ccc(NC(=O)C(Cc2c[nH]c3ccccc23)NC(=O)Oc2ccccc2)cc1C (stereo not drawn) please. > 100 µM

Tell me measured TGI for COc1cc(C2c3cc4c(cc3OC(Nc3ccccc3)C2C)OCO4)cc(OC)c1O (stereo not drawn) please. 18.1 µM

Tell me measured TGI for COC1CC(OC2C(C)OC(OC3C(C)OC(OC4C(O)CC(O[C@H]5CC[C@@]6(C)C(=CC[C@]7(O)[C@@H]6C[C@@H](OC(C)=O)[C@@]6(C)[C@]7(O)CC[C@@]6(O)C(C)=O)C5)OC4C)CC3OC)CC2OC)OC(C)C1O (stereo partly drawn) please. > 12.5 µM

Tell me measured TGI for Cc1cc(Nc2nc(-c3cccnc3)nc3ccccc23)n[nH]1 please. 11.8 µM

Tell me measured TGI for O=C(CC1(O)C(=O)Nc2ccc(Br)cc21)c1ccc(Cl)cc1Cl (stereo not drawn) please. > 100 µM
